Hey, just so you know, these numbers are from paper PMC8854993.

System Under Test: the molecule itself
Measurement Protocol: SEC; analytical SEC, Agilent Bio SEC-3 column in PBS (10 mM NaPO pH 7.4, 154 mM NaCl), 0.6 mg/mL protein, 20 uL injected, 0.35 mL/min, detection at 214 nm, molecular weight estimated from a standard curve; heterodimers made by mixing purified homodimers 1:1 on ice for 5 min

{"Protein": "Escherichia coli HUβ (natural protein, E. coli, UniProt P0ACF4 1-90, looked up, hupB amplified from chromosomal DNA of E. coli BL21(DE3) with primers from the start codon to the last codon, followed by an XhoI site and His6; The reverse primer carries CTCGAG (XhoI) between hupB and the His codons, so Leu-Glu probably stands before His6; theoretical mass printed 10,290.7 Da; No tag cleavage is described; also called HUβ2 (homodimer); hupB-His6; source: E. coli BL21-AI, …) MNKSQLIDKIAAGADISKAAAGRALDAIIASVTESLKEGDDVALVGFGTFAVKERAARTGRNPQTGKEITIAAAKVPSFRAGKALKDAVN", "stoichiometry N": 2}
{"Protein": "Escherichia coli HUβ acetylated at Lys67 (natural protein, E. coli, UniProt P0ACF4 1-90, looked up, acetyl-lysine at 67, from pBAD hupB(K67TAG)-His6, amber codon at Lys67 read as acetyl lysine; Same construct as m2 but with acetyl-lysine at 67; theoretical mass printed 10,332.7 Da; also called HUβ(K67ac); HUβ(K67ac)2 (homodimer)) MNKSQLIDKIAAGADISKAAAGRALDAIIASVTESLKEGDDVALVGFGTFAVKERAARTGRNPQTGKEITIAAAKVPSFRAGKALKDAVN", "stoichiometry N": 2}
{"Protein": "Escherichia coli HUβ acetylated at Lys86 (natural protein, E. coli, UniProt P0ACF4 1-90, looked up, acetyl-lysine at 86, from pBAD hupB(K86TAG)-His6, amber codon at Lys86 read as acetyl lysine; Same construct as m2 but with acetyl-lysine at 86; theoretical mass printed 10,332.7 Da; also called HUβ(K86ac); HUβ(K86ac)2 (homodimer)) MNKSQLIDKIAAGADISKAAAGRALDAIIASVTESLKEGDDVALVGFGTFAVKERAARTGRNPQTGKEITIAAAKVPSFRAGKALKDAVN", "stoichiometry N": 2}
{"Protein": "Escherichia coli HUα (natural protein, E. coli, UniProt P0ACF0 1-90, looked up, hupA amplified from chromosomal DNA of E. coli BL21(DE3) with primers from the start codon to the last codon, followed by His6; No tag cleavage is described; the printed mass (10,357.5 Da observed, 10,357.8 Da calculated) appears to fit the whole protein with His6; also called HUα2 (homodimer); hupA-His6; source: E. coli BL21-AI, purified (Ni-NTA, cation exchange RESOURCE S)) MNKTQLIDVIAEKAELSKTQAKAALESTLAAITESLKEGDAVQLVGFGTFKVNHRAERTGRNPQTGKEIKIAAANVPAFVSGKALKDAVK", "stoichiometry N": 2}
